- SYSTEM: G-protein coupled receptor 151 (Homo sapiens) (UniProt Q8TDV0)
- Sequence (Q8TDV0 whole entry, looked up): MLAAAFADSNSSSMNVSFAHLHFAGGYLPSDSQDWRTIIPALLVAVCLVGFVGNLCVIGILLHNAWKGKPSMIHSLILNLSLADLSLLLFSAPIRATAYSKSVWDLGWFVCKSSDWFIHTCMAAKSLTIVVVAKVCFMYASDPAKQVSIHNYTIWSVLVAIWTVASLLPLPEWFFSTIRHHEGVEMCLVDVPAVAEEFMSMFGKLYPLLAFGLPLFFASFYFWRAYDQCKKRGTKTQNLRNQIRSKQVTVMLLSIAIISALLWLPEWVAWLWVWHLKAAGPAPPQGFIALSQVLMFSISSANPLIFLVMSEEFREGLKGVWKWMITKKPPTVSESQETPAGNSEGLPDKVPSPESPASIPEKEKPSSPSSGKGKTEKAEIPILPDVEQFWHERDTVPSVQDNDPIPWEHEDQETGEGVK
- ASSAY_METHOD_TEXT: GPR151 agonism via beta-arrestin recruitment – cell-based, PathHunter beta-arrestin, luminescence, set 2, confirmation (AID 1508608);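 also: 0% = plate median of compound wells and 100% = EA reagent high control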
- DETAILS: GPR151 PathHunter beta-arrestin cells, 90 min, at 11.2 µM, hits give high values, 100% = signal from added EA reagent
The whole screen tested about 2,300 compounds, of which about 20 (0.9%) were called active. The sample holds actives, similar compounds and a random draw of the others, so the mix is not that of the screen.
For each record, write down the corresponding activation.
Give bare numbers, in %.

O=C(CCNS(=O)(=O)c1ccc2[nH]c(=O)ccc2c1)N1CCC(N2CCCCC2)CC1 ... -4.32
CCOc1cc(OCC)cc(C(=O)Nc2ccc(Br)cn2)c1 ... 8.34
CCOC(=O)c1c(NC(=O)c2ccc(Cl)cc2Cl)sc(C(=O)Nc2ccccc2F)c1C ... -10.1
Cc1nn(-c2ccccc2)c(Cl)c1/C=N\O ... 1.25

Consider the compound shown here: Cc1ccc(CN2CCN(Cc3ccc4cc(F)ccc4n3)CC2CCO)o1 (stereo not given) What is its recorded activation? 4.51

----------
- SYSTEM: G-protein coupled receptor 151 (Homo sapiens) (UniProt Q8TDV0)
- ASSAY_METHOD_TEXT: GPR151 agonism via beta-arrestin recruitment – cell-based, PathHunter beta-arrestin, luminescence, set 2, confirmation (AID 1508608);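 also: 0% = plate median of compound wells and 100% = EA reagent high control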
- DETAILS: GPR151 PathHunter beta-arrestin cells, 90 min, at 11.2 µM, 100% = signal from added EA reagent
Screen size: about 2,300 compounds; about 20 (0.9%) were called active.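 How the source made its calls: active means mean activation across replicates above 26.72%, the hit cutoff set for this confirmation screen; inactive means the rest.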 The sample holds actives, similar compounds and a random draw of the others, so the mix is not that of the screen.
Your answer must be one of the following: True (active), False (inactive)

See these solved cases before continuing.
O=C(NCCCN1CCCC1)C(=O)Nc1ccc2nc3n(c(=O)c2c1)CCCCC3 ... False
Cc1ccc(-n2ncc3c(=O)n(CC(=O)Nc4cccc(Cl)c4)cnc32)cc1C ... False
Cc1cc(Nc2ccc3c(c2)OCO3)nc(Nc2ccc(N3CCOCC3)cc2)n1 ... False
CC1CCCN(C(=O)C(=O)N2CCCC(C)C2)C1 (stereo unspecified) ... False

We next turn to a different compound, shown below.
Any idea what this test logged for CN(C)c1ccc(CNCCC2CCOC(C)(C)C2)cc1 (stereo unspecified) ? False

----------
- SYSTEM: G-protein coupled receptor 151 (Homo sapiens) (UniProt Q8TDV0)
- ASSAY_METHOD_TEXT: GPR151 agonism via beta-arrestin recruitment – cell-based, PathHunter beta-arrestin, luminescence, set 2, confirmation (AID 1508608);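 also: 0% = plate median of compound wells and 100% = EA reagent high control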
- DETAILS: GPR151 PathHunter beta-arrestin cells, 90 min, at 11.2 µM, hits give high values, 100% = signal from added EA reagent
The campaign covered roughly 2,300 compounds. About 20 (0.9%) were called active. Only a selection was taken, and actives are over-represented in it overall.
Exercise: for every item that follows, state its recorded activation.
Numbers only, in %.

COc1ccc(CCN2C(=O)c3cccnc3C2=O)cc1OC ... 2.67

Give me activation for each of these compounds, listed below.
1. COc1ccc(CCNC(=O)Cn2ncn3cccc3c2=O)cc1OC
2. COCCCNC(=O)c1csc2c1CCCC2
3. COc1cccc(CC(=O)NCC2CC(Cc3ccc(F)cc3)=NO2)c1 (stereo unspecified)
4. CCCCOC(=O)c1ccc(N2C(=O)c3cccc([N+](=O)[O-])c3C2=O)cc1
5. COc1ccc(OC)c(S(=O)(=O)NCCc2csc(-c3cccnc3)n2)c1
6. O=C(NCCc1nnc2n1CCN(Cc1ccccc1-c1ccco1)CC2)C1CCCO1 (stereo unspecified)
7. CCN(CC)S(=O)(=O)c1ccc(C(=O)Nc2nc3ccc([N+](=O)[O-])cc3s2)cc1
8. COc1cc(/C=C/c2[nH]c(=O)[nH]c(=O)c2[N+](=O)[O-])ccc1OC(C)C

3.19
-6.29
-4.37
-3.4
-1.44
-0.22
2.56
-3.99

Please give activation for each item listed below.
1. CCN(CC)CCNC(=O)CNC(=O)c1nn(-c2ccc(OC)cc2OC)c(=O)c2ccccc12
2. Cn1ncc2c(NCCc3ccc(Cl)cc3Cl)ncnc21
3. COc1ccc(CC2(C)OC(c3ccc(C)c([N+](=O)[O-])c3)=NN2C(C)=O)cc1 (stereo unspecified)
4. COC(=O)Cn1c(CN2CCOCC2)nc2c1c(=O)n(C)c(=O)n2C
5. CC(=O)NCC(=O)N1CCC(c2nc(-c3ccncc3)ncc2-c2cccc(C)c2)CC1
6. COc1ccccc1-c1nnc(C2CCN(S(=O)(=O)c3cccc(C#N)c3)CC2)o1

-4.28
27.9
-3.14
-2.55
0.35
-0.51

Give its activation value. Item: CC(=O)n1nc(-c2ccco2)nc1SCc1ccccc1 2.59
